# Tested on: NOMO1
# TEST_NAME: cell viability relative to DMSO control; higher = less cytotoxic
# ASSAY_CONTEXT: RPMI 5 mM glucose + 10% dialyzed FBS; 48 h; 0.000781 µM
# cell viability annotations
Value expressed in %; do not type the unit.

// worked examples, cell viability included
| MOLECULE | cell viability / % |
| --- | --- |
| NC1CCC(Nc2nc(Nc3ccc(C(=O)N4CCCCC4)cc3)c3ncn(-c4cccc(F)c4)c3n2)CC1 (centres undefined) | 118 |
| COc1cc(Nc2ncc(F)c(Nc3ccc4c(n3)N(COP(=O)(O)O)C(=O)C(C)(C)O4)n2)cc(OC)c1OC | 101 |
| CCc1cccc2c3c([nH]c12)C(CC)(CC(=O)O)OCC3 (centres undefined) | 100 |

Now for the molecule whose cell viability we want.
API: value(readout= cell viability, system= NOMO1, query= CCNC(=O)Nc1ccc(-c2nc3c(c(N4CCOC[C@@H]4C)n2)CCN(C2COC2)C3)cc1 )
108
